- Test system: COLO 205 colon
- Experiment: NCI-60 one-dose screen, 48 h
- Test settings: 10 µM unless noted
The panel holds about 83,000 compounds, 20% with a hit somewhere; the sample as a whole holds those more often. Activity calls are given as the source filed them. Rule for the calls: active = growth percent below 10; inactive = the rest.
Classes used: 1 for active, 0 for inactive

CCN1C(=O)N(CC)C2Nn3c(s/c(=C\c4cccc([N+](=O)[O-])c4)c3=O)=NC21 (centres undefined) = 1
CNC(=O)CCN1CCN(CC/C=C2\c3ccccc3Sc3ccc(Cl)cc32)CC1 = 0
Cc1c(C(=O)NC(Cc2ccccc2)C(O)C(=O)NCc2ccc(F)cc2)[nH]c2ccccc2c1=O (centres undefined) = 0
COc1ccc(-c2cc(-c3cc(OC)c(OC)c(OC)c3)c(C#N)c(N3CCOCC3)n2)cc1O = 0
O=C(CCCCCCN1CC(=O)N2[C@@H](c3ccccc3Cl)c3[nH]c4ccccc4c3C[C@H]2C1=O)NO = 0
Cc1ccc(C(=O)COc2cccc(/C=C3\Oc4ccccc4C3=O)c2)cc1 = 0
COc1cccc(-c2nc3sccn3c2-c2ccnc(NCCNS(=O)(=O)c3ccc(C(F)(F)F)cc3)c2)c1 = 0
CC(C)C(NC(=O)C1(NC(=O)OCc2ccccc2)CCCC1)C(=O)O (centres undefined) = 0
C[C@@]1(CCC#N)[C@H]2CC[C@@H]3[C@H]4[C@H](C(=O)/C=C/c5cccnc5)CC[C@]4(C#N)CC[C@@]3(C)[C@]2(C)CC[C@H]1C(=O)/C=C/c1cccnc1 = 0
Cn1c(-c2c(N)n(Cc3cccnc3)c3nc(C#N)c(C#N)nc23)nc2ccccc21 = 0
Cc1occc1-c1n[nH]c(=S)n1N1C(=O)CSC1=S = 0
Nc1nc(N)c2c(n1)NC(c1ccccc1)C1CCc3ccccc3C1=N2 (centres undefined) = 0
COc1ccc(-c2nc(SC(C)C)nc(NNC(N)=S)c2C#N)cc1 = 0
CC(=O)c1nc(Nc2ccc(C)cc2)sc1C = 0
CCN(CC)S(=O)(=O)c1cccc(-c2ccc3c(NC(=O)C4CC4)n[nH]c3c2)c1 = 1
CN(C)CCCn1c(=O)c2ccccc2c2ccccc21 = 0
COc1ccc(-c2nc3sccn3c2-c2cc(-c3cc(OC)c(OC)c(OC)c3)on2)cc1 = 0
N#Cc1c(-c2cccc(Cl)c2)cc(-c2cccc(Cl)c2)[nH]c1=O = 0
O=C(N=c1oc2ccccc2cc1-c1cc2ccccc2[nH]1)c1ccc(Cl)cc1 = 0
COC(=O)[C@]12CC[C@@H](C)[C@H](C)[C@@H]1C1=CC[C@@H]3[C@@]4(C)C(C=O)=C[C@@](C)(CO)[C@@H]4[C@H](O)C[C@@]3(C)[C@]1(C)CC2 = 1
N/C(=N/N=C/c1ccccc1)N/N=C\c1ccccc1 = 0
CC/C=C1/C(=O)C=C[C@@H]1C/C=C\CCCC(=O)O = 0
COc1ccc(-c2c(N)n[nH]c2-c2ccc(Cl)cc2O)cc1OC = 0
N=C1C(c2nc(-c3ccc(Br)cc3)cs2)=C(O)CN1Cc1cccnc1 = 0
Cc1nc2ccccc2n1CC1NC(=O)NC1=O (centres undefined) = 0
O=C(/C=C/c1c(Cl)nc2sccn12)c1nccs1 = 0
COc1ccccc1CNCCCN1C(=O)c2ccc3c4c(ccc(c24)C1=O)C(=O)N(CCCNCCCCN)C3=O = 1
Cc1cccc(NC(=O)CSc2nc3ccccc3[nH]2)c1 = 0
CCN1C(=O)N(CC)C2Nn3c(s/c(=C4\C(=O)N(C)c5ccccc54)c3=O)=NC21 (centres undefined) = 1
COc1cc(C2CC(=O)Nc3c2c(C)nn3-c2nc3ccccc3[nH]2)cc2c1OCC(=O)N2 (centres undefined) = 0
COc1ccc(NC(=O)c2nc(-c3cc(OC)c(OC)c(OC)c3)n(-c3cccc4ccccc34)n2)cc1OC = 0
CC(C)Sc1nc(NNC(N)=S)c(C#N)c(-c2ccc(F)cc2)n1 = 0
O=C(Nc1ccccc1)Nc1cccc(Oc2nnc(Cl)c3ccccc23)c1 = 0
O=c1[nH]ccc2nc(N3CCC(O)CC3)nc(Nc3ccc(N4CCOCC4)cc3)c12 = 1

---

- System: MDA-MB-435 melanoma
- Experiment: NCI-60 one-dose screen, 48 h (100 = growth as untreated, 0 = no growth, -100 = all killed)
- Test settings: 10 µM unless noted
About 83,000 compounds went through this panel and 20% of them were active in at least one assay; those are over-represented in the sample as a whole.
Here the recorded growth is given for each entry.
Measurement label: growth (%)

CCOP(=O)(OCC)C1CP(=O)(c2ccccc2)CC(C)=C1Cl (stereo unspecified) = 110
O=C1/C(=C/c2ccccc2)CCc2nc3ccccc3c(/C=C/c3ccc(Cl)cc3)c21 = 95.6
Nc1cc2c3c(cccc3c1)C(=O)N(CCN1CCCC1)C2=O = 48.7
c1cc2ccc3cc2cc1CNCCOCCNCc1ccc2ccc(cc2c1)CNCCOCCNC3 = -90.2
CC(C)C(NC(=O)C1(NC(=O)OCc2ccccc2)CCCC1)C(=O)O (stereo unspecified) = 109
Cc1ccc(NCCN(C)C)c2c(=O)c3ccccc3sc12 = 13.2

---

- System: TK-10 renal
- Experiment: NCI-60 one-dose screen, 48 h (100 = growth as untreated, 0 = no growth, -100 = all killed)
- Test settings: 10 µM unless noted
The panel holds about 83,000 compounds, 20% with a hit somewhere; the sample as a whole holds those more often. Calls of active or inactive are those of the source. How the source made its calls: active means growth percent below 10; inactive means the rest.
Here the recorded growth is given for each entry.
Measurement label: growth

COc1cc(/C=C/C(=O)c2ccc(Nc3nc(Nc4ccc(F)cc4)nc(Nc4ccc(Cl)cc4)n3)cc2)cc(OC)c1OC = 73.9% (inactive)
C=C1C(=O)O[C@H]2[C@H]1CC/C(COC(=O)C(=O)c1c[nH]c3ccc(OC)cc13)=C\CC[C@@]1(C)O[C@@H]21 = -56.7% (active)
O=c1oc2ccccc2c(Cl)c1Cl = 94.3% (inactive)
O=c1[nH][n+](-c2ccc(Cl)cc2)no1 = 70.8% (inactive)
COc1ccc2nc(NNC(=O)c3cnccn3)c3cccn3c2c1 = 30.7% (inactive)
COc1cc(/C=C/C(=O)c2c(C)nc3ccccc3c2/C=C/c2ccc(C)cc2)cc(OC)c1OC = 54.3% (inactive)
CCCCC1CCCCN1C(=O)OCC (stereo not given) = 92.7% (inactive)
CC(C)C(NC(=O)C1(NC(=O)OCc2ccccc2)CCCC1)C(=O)O (stereo not given) = 108% (inactive)
CN(Cc1cnc2nc(N)nc(N)c2n1)c1ccc(C(=O)N[C@@H](CCc2nn[nH]n2)c2nn[nH]n2)cc1 = 56.4% (inactive)
COc1cc(C(=O)/C=C/c2c(-c3ccc(F)cc3)nc3sc(C)cn23)cc(OC)c1OC = 52.2% (inactive)

---

- System: HS 578T breast
- Experiment: NCI-60 one-dose screen, 48 h (100 = growth as untreated, 0 = no growth, -100 = all killed)
- Test settings: 10 µM unless noted
This is part of a sample that, as a whole, favours compounds with a hit. Of some 83,000 tested, about 20% had one in any assay. Calls of active or inactive are those of the source. The calls were made as follows: active = growth percent below 10; inactive = the rest.
Here the recorded growth is given for each entry.
Measurement label: growth

Cc1ccc(NCCN(C)C)c2c(=O)c3ccccc3sc12 = 46.4% (inactive)
COc1ccc(N=C(c2ccccc2)C2C(=O)c3ccccc3C2=O)cc1 = 86.9% (inactive)
CNC(=O)CCN1CCN(CC/C=C2\c3ccccc3Sc3ccc(Cl)cc32)CC1 = 65.4% (inactive)
COc1cccc2c1C(=O)c1c(O)c3c(c(O)c1C2=O)CC(O)(/C(C)=N/NC(=O)CCCCC(=O)N/N=C(\C)C1(O)Cc2c(O)c4c(c(O)c2C(OC2CC(N)C(O)C(C)O2)C1)C(=O)c1c(OC)cccc1C4=O)CC3OC1CC(N)C(O)C(C)O1 (centres undefined) = -40.4% [5 µM] (active)
c1ccc2c(c1)nc(CN1CCOCC1)n1cc(N3CCCC3)nc21 = 92.5% (inactive)
Cc1cc(NCCCCNc2ccnc3cc(Cl)ccc23)nc(Nc2ccc(C(=O)N3CCCC3)cc2)n1 = 89.8% (inactive)
COc1cc(/C=N/NC(=O)Cn2c(C(C)C)nc3ccccc32)ccc1O = 98.2% (inactive)
CCN(CCNc1ccc(C)c2sc3ccccc3c(=O)c12)CC(C)(C)O = 59.5% (inactive)
COC(=O)c1c2c(c(C)[n+]([O-])c1C)C(=O)C(NCc1ccc(F)cc1)=CC2=O = 82.6% (inactive)

---

- System: SK-MEL-5 melanoma
- Experiment: NCI-60 one-dose screen, 48 h (100 = growth as untreated, 0 = no growth, -100 = all killed)
- Test settings: 10 µM unless noted
About 83,000 compounds went through this panel and 20% of them were active in at least one assay; those are over-represented in the sample as a whole.
Here the recorded growth is given for each entry.
Measurement label: growth (%)

COc1cc(OC)cc(C2CC(=O)Nc3c2c(C)nn3-c2nc3ccccc3[nH]2)c1 (centres undefined) = -62
O=C1CC(N2C(=O)/C(=C/C(Cl)=C\c3ccc([N+](=O)[O-])cc3)SC2=S)C(=O)N1c1ccc(O)cc1 (centres undefined) = -39.1
Cc1cc(Cl)nc(NCc2cc(Nc3ccnc4cc(Cl)ccc34)ccc2F)n1 = 56.5
C[C@H](NC(=O)[C@@H]1CSSC[C@@H](NC(=O)c2nc3ccccc3cc2O)C(=O)NCC(=O)N1C)c1ccccc1 = 0.825
O=C(Nc1cccc(C(F)(F)F)c1)Nc1cccc(C(F)(F)F)c1 = -72.5
C[C@]12CC[C@@H]3c4cc(OC(F)F)c(O)cc4CC[C@H]3[C@@H]1CC[C@@H]2OS(N)(=O)=O = 0.18
CCN1CCN(c2cc(C)nc(NCc3cc(Nc4ccnc5cc(Cl)ccc45)ccc3F)n2)CC1 = -85.5
Cc1cc(NCc2cc(Nc3ccnc4cc(Cl)ccc34)ccc2F)nc(N2CCCC2)n1 = -94.2
COc1ccc(NC(=O)c2nc(-c3cc(OC)c(OC)c(OC)c3)n(-c3cccc4ccccc34)n2)cc1OC = 32.4
